B1: PDS5B (parent)
chain: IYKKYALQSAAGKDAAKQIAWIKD

# Variants of: B1
# EXPERIMENTAL PROTOCOL: protein stability index of a GFP-peptide fusion (GPS, HEK-293T) (PSI 1-6); higher = more stable;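 note: lentivirally expressed fusions sorted by FACS into six bins by GFP to DsRed ratio, PSI derived from sequencing read proportions per bin multiplied by bin number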
# RUN CONDITIONS: c terminus: a fixed tail appended
Form field: protein stability index (one value per entry).

// worked examples, protein stability index included
> print(dat)
   mutation.string  measured.value
1             G12A            1.86
2              Q8L            1.85
3             K17P            2.51

Input line: Give protein stability index for `A16T`
Output line: 2.46

Input line: Give protein stability index for `Y5G`
Output line: 2.82

Input line: Give protein stability index for `A11G`
Output line: 2.65

Input line: Give protein stability index for `A10C`
Output line: 1.72

Input line: Give protein stability index for `Y5P`
Output line: 3.63

From: the supplement of paper PMC10567573
